Test details: qHTS assay to identify small molecule antagonists of the thyroid receptor (TR) signaling pathway - cell viability counter screen (AID 743064); also: nearly all actives have a fitted effect of over 50% in size
Run parameters: GH3.TRE-Luc viability, CellTiter-Fluor, 24 h; series mostly up to 70.3 µM
Source text: National Center for Advancing Translational Sciences [NCATS] NIH Chemical Genomics Center [NCGC] U.S. Environmental Protection Agency [EPA] National Institutes of Environmental Health Sciences [NIEHS] National Toxicology Program [NTP] U.S. Food and Drug Administration [FDA] Thyroid receptor (TR), a nuclear hormone receptor, plays an important role in development, proliferation, differentiation, metabolism, brain function, and cardiovascular system. […]
Inconclusive results are not listed. The source made the active and inactive calls. Calls follow the shape of the dose curve; as a rule, active = well fitted cell-killing curve with a large enough effect in the repeat runs; inconclusive = weak or mixed curves, or effect the other way; inactive = no such curve, though single readings can be large or run the other way. Starred links: 1 amine or outer side, 2 acyl side, 3 side chain; linkers in the order of their positions; H or OH if unused. Positions of bridges follow the written chain, without caps; N, C: chain ends. Non-standard residues stand in square brackets, D forms with d. Residues, ends and D or L forms follow the SMILES beside them. *: point of attachment. X5 = NC1=N[C@@H]([C@H](N[*:1])C(=O)[*:2])C[C@H](O)N1; ΔAla(Z-3-ureido) = NC(=O)N/C=C(\N)C(=O)O; β3hOrn = NCCC[C@H](N)CC(=O)*; Dap = NC[C@H](N)C(=O)O
Possible outcomes: active, inactive

>  <Compound>
CCCCCCCCCCCCCCCCOCCOCCOCCOCCOCCOCCOCCOCCOCCOCCOCCOCCOCCOCCOCCOCCOCCOCCOCCOCCO

>  <Label class>
active

$$$$
>  <Compound>
CO/N=C(\C(=O)N[C@@H]1C(=O)N2C(C(=O)O)=C(CSc3nnnn3C)CS[C@H]12)c1csc(N)n1

>  <Label class>
inactive

$$$$
>  <Compound>
CCN(CC)CCOC(=O)c1cccnc1

>  <Label class>
inactive

$$$$
>  <Compound>
O=C(O)COc1ccc(CCNS(=O)(=O)c2ccccc2)s1

>  <Label class>
inactive

$$$$
>  <Compound>
CCN(CC)c1ccc(C(=C2C=CC(=[N+](CC)CC)C=C2)c2ccccc2)cc1

>  <Label class>
active

$$$$
>  <Compound>
CO[C@H]1C=CO[C@@]2(C)Oc3c(C)c(O)c4c(O)c(c5c(nc6cc(C)ccn65)c4c3C2=O)NC(=O)/C(C)=C\C=C[C@H](C)[C@H](O)[C@@H](C)[C@@H](O)[C@@H](C)[C@H](OC(C)=O)[C@@H]1C

>  <Label class>
inactive

$$$$
>  <Compound>
Cc1ccc(C2(O)CCN(CCCC(=O)c3ccc(F)cc3)CC2)cc1

>  <Label class>
active

$$$$
>  <Compound>
CCCCCCCCCCCCCCCC(=O)OC[C@@H](COP(=O)([O-])OCC[N+](C)(C)C)OC(=O)CCCCCCCCCCCCCCC

>  <Label class>
inactive

$$$$
>  <Compound>
[O]=[Bi][O][Bi]=[O]

>  <Label class>
inactive

$$$$
>  <Compound>
Cc1ccc(/C(=C\CN2CCCC2)c2cccc(/C=C/C(=O)O)n2)cc1

>  <Label class>
inactive

$$$$
>  <Compound>
NCCC[C@H](N)CC(=O)N[C@H]1CNC(=O)[C@H]([C@H]2C[C@H](O)NC(N)=N2)NC(=O)/C(=C/NC(N)=O)NC(=O)[C@H](CO)NC(=O)[C@H](CO)NC1=O (β3hOrn-[Dap]SS[ΔAla(Z-3-ureido)][X5]; lactam 1-C)

>  <Label class>
inactive

$$$$
>  <Compound>
OC[C@H]1O[C@@H](n2cnc3c2NC=NC[C@H]3O)C[C@@H]1O

>  <Label class>
inactive

$$$$
>  <Compound>
O=P(O)(O)OC[C@H]1O[C@](O)(COP(=O)(O)O)[C@@H](O)[C@@H]1O

>  <Label class>
inactive

$$$$

* * *

Test system: Androgen receptor (Homo sapiens) (UniProt P10275)
Sequence (P10275 whole entry, looked up): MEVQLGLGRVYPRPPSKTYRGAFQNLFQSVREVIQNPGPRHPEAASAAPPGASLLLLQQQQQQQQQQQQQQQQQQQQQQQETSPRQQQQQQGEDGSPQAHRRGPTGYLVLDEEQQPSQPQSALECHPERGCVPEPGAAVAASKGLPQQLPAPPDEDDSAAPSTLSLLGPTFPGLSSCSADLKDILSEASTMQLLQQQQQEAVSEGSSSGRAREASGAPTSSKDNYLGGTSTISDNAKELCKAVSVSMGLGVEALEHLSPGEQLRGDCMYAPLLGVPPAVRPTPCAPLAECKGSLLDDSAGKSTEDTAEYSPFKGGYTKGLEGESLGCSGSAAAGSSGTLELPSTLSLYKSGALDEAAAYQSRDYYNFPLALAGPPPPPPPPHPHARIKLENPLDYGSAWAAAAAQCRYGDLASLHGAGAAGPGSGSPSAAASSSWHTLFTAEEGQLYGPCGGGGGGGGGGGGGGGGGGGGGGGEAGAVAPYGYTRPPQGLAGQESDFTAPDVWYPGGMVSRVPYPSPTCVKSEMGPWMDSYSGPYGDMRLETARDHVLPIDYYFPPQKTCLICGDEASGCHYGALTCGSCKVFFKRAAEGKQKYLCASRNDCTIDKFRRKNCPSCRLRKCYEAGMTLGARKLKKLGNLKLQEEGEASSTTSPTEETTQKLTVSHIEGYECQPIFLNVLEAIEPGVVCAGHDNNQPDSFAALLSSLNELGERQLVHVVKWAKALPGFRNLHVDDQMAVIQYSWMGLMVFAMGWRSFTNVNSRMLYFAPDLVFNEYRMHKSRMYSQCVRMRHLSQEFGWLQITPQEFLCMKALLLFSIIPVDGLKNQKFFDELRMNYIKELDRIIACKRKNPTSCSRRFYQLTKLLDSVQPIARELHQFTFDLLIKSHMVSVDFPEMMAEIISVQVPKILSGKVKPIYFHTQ
Test details: qHTS assay to identify small molecule agonists of the androgen receptor (AR) signaling pathway using the MDA cell line (AID 743040; also: nearly all actives have a fitted effect of over 20% in size; also: potency is read from the fitted curve at half-maximal effect)
Run parameters: MDA-kb2 AR-luc cells, MMTV luciferase, 16 h; series mostly up to 70.3 µM
Text: National Center for Advancing Translational Sciences [NCATS] NIH Chemical Genomics Center [NCGC] U.S. Environmental Protection Agency [EPA] National Institutes of Environmental Health Sciences [NIEHS] National Toxicology Program [NTP] U.S. Food and Drug Administration [FDA] Androgen receptor (AR), a nuclear hormone receptor, plays a critical role in AR-dependent prostate cancer and other androgen related diseases. […]
The source made the active and inactive calls. Calls come from the whole dose curve; as a rule, active = well fitted activation curve with a large enough effect in the repeat runs; inconclusive = weak or mixed curves; inactive = flat fitted curve, though single readings scatter.

>  <Molecule>
O=C(OC[C@H]1O[C@](O)(COC(=O)c2cccnc2)[C@@H](OC(=O)c2cccnc2)[C@@H]1OC(=O)c1cccnc1)c1cccnc1

>  <Potency>
inactive

$$$$
>  <Molecule>
CCOC(=O)O[C@]1(C(=O)COC(=O)CC)CC[C@H]2[C@@H]3CCC4=CC(=O)C=C[C@]4(C)[C@H]3[C@@H](O)C[C@@]21C

>  <Potency>
0.0507 µM (active)

$$$$
>  <Molecule>
NC(=O)c1ccc[n+]([C@@H]2O[C@H](COP(=O)([O-])OP(=O)(O)OC[C@H]3O[C@@H](n4cnc5c(N)ncnc54)[C@H](O)[C@@H]3O)[C@@H](O)[C@H]2O)c1

>  <Potency>
inactive

$$$$
>  <Molecule>
COC(=O)[C@H]1[C@H]2C[C@@H]3c4[nH]c5cc(OC)ccc5c4CCN3C[C@H]2C[C@@H](OC(=O)/C=C/c2cc(OC)c(OC)c(OC)c2)[C@@H]1OC

>  <Potency>
inactive

$$$$
>  <Molecule>
O=C(O)C1=C(CSc2nnnn2CS(=O)(=O)O)CS[C@@H]2[C@H](NC(=O)[C@H](O)c3ccccc3)C(=O)N12

>  <Potency>
26.6 µM (active)

$$$$
>  <Molecule>
Cc1cc2nc3c(=O)[nH]c(=O)nc-3n(C[C@H](O)[C@H](O)[C@H](O)COP(=O)(O)OP(=O)(O)OC[C@H]3O[C@@H](n4cnc5c(N)ncnc54)[C@H](O)[C@@H]3O)c2cc1C

>  <Potency>
inactive

$$$$
>  <Molecule>
CC(C)(CO)[C@@H](O)C(=O)NCCCC(=O)O

>  <Potency>
inactive

$$$$
>  <Molecule>
CN[C@H]1CCc2cc(OC)c(OC)c(OC)c2-c2ccc(OC)c(=O)cc21

>  <Potency>
inactive

$$$$
>  <Molecule>
CCCOc1cc(N)ccc1C(=O)OCCN(CC)CC

>  <Potency>
inactive

$$$$
>  <Molecule>
C=C1CC[C@@H]2[C@](C)(CO)[C@H](O)CC[C@@]2(C)[C@@H]1C/C=C1/C(=O)OC[C@H]1O

>  <Potency>
inactive

$$$$
>  <Molecule>
CCCCCCCCCCCCCCCCCC(=O)OC[C@@H](O)[C@H]1OC[C@H](O)[C@H]1O

>  <Potency>
inactive

$$$$
>  <Molecule>
CC(CCc1ccc(O)cc1)NCC(O)c1ccc(O)cc1 (stereo not drawn)

>  <Potency>
inactive

$$$$
>  <Molecule>
CCc1ccc(S(=O)(=O)O)cc1

>  <Potency>
inactive

$$$$
>  <Molecule>
C#C[C@]1(O)CC[C@H]2[C@@H]3CCC4=C/C(=N/O)CC[C@@H]4[C@H]3CC[C@@]21CC

>  <Potency>
0.0335 µM (active)

$$$$
>  <Molecule>
O=C(O)c1c(Cl)c(Cl)c(Cl)c(Cl)c1-c1c2cc(I)c(=O)c(I)c-2oc2c(I)c(O)c(I)cc12

>  <Potency>
13.3 µM (active)

$$$$
>  <Molecule>
CS(=O)(=O)Nc1cc2occ(NC=O)c(=O)c2cc1Oc1ccccc1

>  <Potency>
inactive

$$$$
>  <Molecule>
O=C[C@H](O)[C@@H](O)[C@H](O[C@H]1O[C@H](CO)[C@@H](O[C@H]2O[C@H](CO)[C@@H](O)[C@H](O)[C@H]2O)[C@H](O)[C@H]1O)[C@H](O)CO

>  <Potency>
1.68 µM (active)

$$$$
>  <Molecule>
CN(C)c1ccc(C(=C2C=CC(=[N+](C)C)C=C2)c2c(O)c(S(=O)(=O)[O-])cc3cc(S(=O)(=O)O)ccc23)cc1

>  <Potency>
inactive

$$$$
>  <Molecule>
CCCCCCCCCCCCCC[n+]1ccc(C)cc1

>  <Potency>
inactive

$$$$
>  <Molecule>
CCCCC(F)(F)[C@@]1(O)CC[C@H]2[C@@H](CC(=O)[C@@H]2CCCCCCC(=O)O)O1

>  <Potency>
inactive

$$$$
>  <Molecule>
CCCCCCCCCCCCCCCC(=O)OC[C@@H](COP(=O)([O-])OCC[N+](C)(C)C)OC(=O)CCCCCCCCCCCCCCC

>  <Potency>
inactive

$$$$
>  <Molecule>
CCC(CN)CC(C)CCNCC(O)CNCC(C)CC(CC)CN (stereo not drawn)

>  <Potency>
inactive

$$$$
>  <Molecule>
CCCCOC(=O)C(=O)Nc1cccc(-c2nn[nH]n2)c1

>  <Potency>
inactive

$$$$
>  <Molecule>
C[N+]1(C)CCN(CC(O)(c2ccccc2)C2CCCCC2)CC1 (stereo not drawn)

>  <Potency>
inactive

$$$$
>  <Molecule>
CC1(C)S[C@@H]2[C@H](NC(=O)C3(N)CCCCC3)C(=O)N2[C@H]1C(=O)O

>  <Potency>
inactive

$$$$
>  <Molecule>
C[C@]12CC[C@@H]3c4ccc(OC(=O)c5ccccc5)cc4CC[C@H]3[C@@H]1CC[C@@H]2O

>  <Potency>
1.33 µM (active)

$$$$
>  <Molecule>
Clc1ccc(COC(Cn2ccnc2)c2ccc(Cl)cc2Cl)c(Cl)c1 (stereo not drawn)

>  <Potency>
inactive

$$$$
>  <Molecule>
O=C(O)CN(CC(=O)O)CC1=CC2C(=CC1=O)Oc1cc(O)c(CN(CC(=O)O)CC(=O)O)cc1C21OC(=O)c2ccccc21 (stereo not drawn)

>  <Potency>
inactive

$$$$
>  <Molecule>
CC(=O)O[C@H]1C(=O)[C@@]2(C)[C@H]([C@H](OC(=O)c3ccccc3)[C@]3(O)C[C@H](OC(=O)[C@H](O)[C@@H](NC(=O)c4ccccc4)c4ccccc4)C(C)=C1C3(C)C)[C@]1(OC(C)=O)CO[C@@H]1C[C@@H]2O

>  <Potency>
inactive

$$$$
>  <Molecule>
Nc1nc2c(c(=O)[nH]1)N(C=O)C(CNc1ccc(C(=O)N[C@@H](CCC(=O)O)C(=O)O)cc1)CN2 (stereo partly drawn)

>  <Potency>
inactive

$$$$
>  <Molecule>
O=C(O)c1ccc(NC(=O)[C@H](Cc2ccc(O)cc2)NC(=O)c2ccccc2)cc1

>  <Potency>
inactive

$$$$
>  <Molecule>
O=C1C(=O)c2ncccc2-c2cccnc21

>  <Potency>
inactive

$$$$
>  <Molecule>
O=C(O)CC/C=C\CC[C@@H]1[C@@H](N2CCCCC2)[C@@H](O)C[C@@H]1OCc1ccc(-c2ccccc2)cc1

>  <Potency>
inactive

$$$$
